Cited source: PubChem BioAssay AID1745844

Examples of compounds with documented TD50 follow.
test system: rodent lifetime carcinogenesis bioassay, tumor incidence TD50; experiment: carcinogenic potency in animals, long-term in vivo studies, CPDB compilation (AID 1745844); details: rat; strain Fischer 344; males; in drinking water; site: esophagus; lesion: several types; types named in the paper; dosed 50 weeks; study length 114 weeks
QUANTITY_NAME: TD50

STRUCTURE_SMILES_STRING | TARGET_OF_ASSAY | READING
CN(N=O)c1ccccc1 | rodent lifetime carcinogenesis bioassay, tumor incidence TD50 | 0.272 mg/kg/day
CN(N=O)c1ccc(F)cc1 | rodent lifetime carcinogenesis bioassay, tumor incidence TD50 | 0.255 mg/kg/day
